# assay-comment: microbe, parasite or virus in culture
# condition-parameters: Mycobacterium tuberculosis, 72 h, read-out: pIC50 (converted)
metric: IC50

So what does the record say about IC50 for "CCCC(=O)N(CCCN1CCOCC1)c1nc2c(C)c(C)ccc2s1" ?
> 50.1 µM

Also Cc1occc1C(=O)NCC(CO)Cc1cccs1 (centres undefined) , if possible.
> 501 µM

Also Cc1cc(OC(F)F)c(C2NC(=O)CN2C)cc1C (centres undefined) , if possible.
> 501 µM

Also O=C(NCC(O)c1ccc(F)cc1)Nc1cnns1 (centres undefined) , if possible.
> 501 µM

---

# System: Leishmania donovani
# assay-comment: Leishmania intramacrophage assay
# Format: functional, organism-based
# condition-parameters: Leishmania donovani
Provide the reported IC50 of each item.

Request - read-out IC50 | tested on Leishmania donovani | compound CN1CCN(C2COC3(CCN(Cc4ccsc4)CC3)C2)CC1 (configuration not stated)
> 50.1 µM

Also "CCOc1ccc(S(=O)(=O)NCc2cccnc2N(C)C)cc1" , if possible.
> 50.1 µM

Also "Cc1ccc(Oc2cc(F)ccc2O[C@@H]2CCC[C@@H](N)[C@H]2O)cc1" , if possible.
6.4 µM

Also CN(c1ncnc2c1cnn2C)C1CCCN(c2cccnn2)C1 (configuration not stated) , if possible.
> 50.1 µM

Also OCCN1CCC(F)(F)C2(CCN(c3cccnc3)C2)C1 (configuration not stated) , if possible.
> 50.1 µM

Also "Cc1c(C(=O)O)sc2nc(Cc3ccccc3)nc(N)c12" , if possible.
> 50.1 µM

Also "CC(C)C(=O)N1CCN(Cc2csc(-c3ncccn3)n2)CC1" , if possible.
> 50.1 µM

Also FC1(F)CCN(Cc2ccncc2)CC12CCN(c1cccnc1)C2 (configuration not stated) , if possible.
> 50.1 µM

Also "CCc1ccc(-c2ncc3c(n2)N(C)CCN(CCN(C)C)C3=O)cc1" , if possible.
10.3 µM

Also COc1c(F)cc(-c2cccc3c2OC(CN)C3)cc1F (configuration not stated) , if possible.
19.2 µM

Also CC(Cn1ccnc1)NCc1cc(Br)c2c(c1)OCO2 (configuration not stated) , if possible.
> 50.1 µM

Also FC1(F)CCN(Cc2ccncc2)CC12CCN(c1cnccn1)C2 (configuration not stated) , if possible.
> 50.1 µM

Also CC1CCCN(CC(=O)N2CCC(c3ncc4c(n3)CCNC4)CC2)C1 (configuration not stated) , if possible.
> 50.1 µM

Also NCC1Cc2cc(Cl)cc(-c3cncc(C(=O)N4CCCCC4)n3)c2O1 (configuration not stated) , if possible.
20.8 µM

Also CN1CCCC(Cc2cncc(Br)c2)CC1 (configuration not stated) , if possible.
> 50.1 µM

Also FC1(F)CCN(Cc2ccccn2)CC12CCN(c1cnccn1)C2 (configuration not stated) , if possible.
> 50.1 µM

Also "CC(C)c1cc(N2CCC(N)CC2)n2nccc2n1" , if possible.
> 50.1 µM

---

Provide the reported IC50 of each item.
# assay-comment: microbe, parasite or virus in culture
# condition-parameters: Mycobacterium tuberculosis, 96 h, read-out: pIC50 (converted)
// units = µM; emit number, no label

So what does the record say about IC50 for "CN(C)c1nc(-c2ccc3c(c2)CCC(=O)N3)cs1" ?
201

Also "Cn1cc(CNC(=O)c2cccc(I)c2)cn1" , if possible.
70.2

Also "CCSc1nnc(-c2ccc[nH]2)o1" , if possible.
188

Also COCC(=O)NC1CCc2ccccc21 (centres undefined) , if possible.
124
